B1: scFv; the commonest letter at each place (parent)
chain 1: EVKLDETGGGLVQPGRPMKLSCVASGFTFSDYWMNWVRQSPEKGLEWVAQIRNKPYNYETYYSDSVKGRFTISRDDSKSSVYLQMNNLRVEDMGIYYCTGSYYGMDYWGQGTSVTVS
chain 2: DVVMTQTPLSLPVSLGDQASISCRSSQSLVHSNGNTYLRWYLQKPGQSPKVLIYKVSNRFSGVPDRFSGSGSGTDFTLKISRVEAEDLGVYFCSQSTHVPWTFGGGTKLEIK

Variants of: B1
Experiment: yeast surface expression (ratio to wild type); higher = more expressed
Conditions: format: scFv 4-4-20, heavy + light
Rule: yeast surface expression of 0.7 or more gives criterion met; anything lower gives criterion not met.

[
  {
    "VARIANT_NOTATION": "chain 1 S30W N35I",
    "ASSIGNED_LABEL": "criterion met"
  }
]

Request: Hello, I need to know if chain 1 Y103W G109S has measured yeast surface expression not below 0.7. Thanks!
Result: criterion not met

Request: Hello, I need to know if chain 1 G100C W108T has measured yeast surface expression not below 0.7. Thanks!
Result: criterion not met

Request: Hello, I need to know if chain 1 F29R has measured yeast surface expression not below 0.7. Thanks!
Result: criterion met

Request: Hello, I need to know if chain 1 F29R V37E has measured yeast surface expression not below 0.7. Thanks!
Result: criterion not met

Request: Hello, I need to know if chain 1 W33K W36Y has measured yeast surface expression not below 0.7. Thanks!
Result: criterion not met

The values you see were collected from the FLAb antibody collection (doi:10.7554/elife.23156).
